Please go through the items and note down their solubility.
Unit mM implied. Number only.

Kindly note the recorded solubility for CC(C)OC(=O)COc1ccc(Cl)cc1Cl , which is 0.142

Kindly note the recorded solubility for c1ccc2c(c1)-c1cccc3c1c-2cc1ccccc13 , which is 5.94e-06

Kindly note the recorded solubility for O=C(O)c1c(Cl)cccc1Cl , which is 74

Kindly note the recorded solubility for CCC(N)Cc1c[nH]c2ccccc12 (stereo not drawn) , which is 2.71

Kindly note the recorded solubility for O=C(OCC(O)CO)c1ccccc1Nc1ccnc2cc(Cl)ccc12 (stereo not drawn) , which is 107

Kindly note the recorded solubility for S=c1[nH]cnc2[nH]cnc12 , which is 450

Kindly note the recorded solubility for c1ccc(N=NNc2ccccc2)cc1 , which is 2.54

Kindly note the recorded solubility for CC1=C2[C@H]3OC(=O)[C@@H](C)[C@@H]3CC[C@@]2(C)C=CC1=O , which is 0.812

Kindly note the recorded solubility for O=C(O)c1c(O)cccc1O , which is 62

Kindly note the recorded solubility for CCOc1ccc(C(=O)OCCN(CC)CC)cc1 , which is 1.93

Kindly note the recorded solubility for CNC(=O)O/N=C1\[C@@H](Cl)[C@@H]2C[C@H](C#N)[C@H]1C2 , which is 8.28

Kindly note the recorded solubility for N[C@@H](C(=O)N[C@@H]1C(=O)N2C(C(=O)O)=C(Cl)CS[C@H]12)c1ccccc1 , which is 27.2

Kindly note the recorded solubility for COc1cc(NS(=O)(=O)c2ccc(N)cc2)nc(OC)n1 , which is 1.11

Kindly note the recorded solubility for Cc1cc(NS(=O)(=O)c2ccc(N)cc2)nc(C)n1 , which is 5.79

Kindly note the recorded solubility for CNC(=O)Oc1cccc(N=CN(C)C)c1 , which is 4.52

Kindly note the recorded solubility for CCc1cccc(CC)c1N , which is 4.49

Kindly note the recorded solubility for O=C(O)c1ccc(Cl)c(Cl)c1 , which is 0.32

Kindly note the recorded solubility for Cc1cc(OC(=O)N(C)C)n(-c2ccccc2)n1 , which is 8.15

Kindly note the recorded solubility for NCCNCCNCCNCCN , which is 34500

Kindly note the recorded solubility for CN(C)C(=O)OC1=CC(=O)CC(C)(C)C1 , which is 142

Kindly note the recorded solubility for CC[C@H](Br)C(=O)O , which is 419

Kindly note the recorded solubility for CCOc1ccc2nc(S(N)(=O)=O)sc2c1 , which is 0.155

Kindly note the recorded solubility for CCOP(=S)(OCC)OCCSCC , which is 0.232

Kindly note the recorded solubility for CCC[C@H]1CCCCN1 , which is 141

Kindly note the recorded solubility for CC1CCC(C)O1 (stereo not drawn) , which is 1180

Kindly note the recorded solubility for CC1=C(C(=O)O)N2C(=O)[C@@H](NC(=O)[C@H](N)C3=CCC=CC3)[C@H]2SC1 , which is 61

Kindly note the recorded solubility for COC(=O)c1cc(O)c(O)c(O)c1 , which is 57.6

Kindly note the recorded solubility for Cn1c(=O)[nH]c2[nH]c(=O)[nH]c2c1=O , which is 27.5

====

# Protocol Conditions: 25 °C
Endpoint Name: log10(solubility) (log10 of the value in mM)
Give log10 of solubility, with solubility taken in mM.

Kindly note the recorded log10(solubility) for CC[C@H](O)C(C)C , which is 2.29

Kindly note the recorded log10(solubility) for C1=CCCCCC1 , which is -0.16

Kindly note the recorded log10(solubility) for CC(Oc1ccc(Cl)cc1)C(=O)O (centres undefined) , which is 0.87

Kindly note the recorded log10(solubility) for Clc1cc(-c2cc(Cl)c(Cl)c(Cl)c2Cl)c(Cl)c(Cl)c1Cl , which is -6.20

Kindly note the recorded log10(solubility) for CCC(C)C(C)C (centres undefined) , which is -1.28

Kindly note the recorded log10(solubility) for O=S(=O)(O)CS(=O)(=O)O , which is 3.95

Kindly note the recorded log10(solubility) for C1CCCC1 , which is 0.35

Kindly note the recorded log10(solubility) for COc1ccc2c(c1OC)C(=O)O[C@@H]2[C@H]1c2c(cc3c(c2OC)OCO3)CCN1C , which is -0.35

Kindly note the recorded log10(solubility) for CCc1cccc2ccccc12 , which is -1.16
